Tested on: Geotrichum candidum (Gca)
Assay: Poison plate assay (Experiment 2), fungal growth and Limpel synergy
Format: cell-based
Details: Table 7, Gca; conc 60 μM (tetraconazole 6 μM); combinations 60 + 60, (I) + (II-i) 60 + 6
Source text: Name of the primary compound: imazalil (I) Formulations: (% is in w/v) • Stock solution: 2000 ppm (w/w) • Solvent for dilutions: demineralised water • Fungal species: post harvest and seed pathogens: Geotrichum candidum (Gca) and Penicillium digitatum (Pdi) Calculated amounts of dilutions were poured into multi-well plates. […] A synergistic effect is acknowledged if the measured activity M exceeds the calculated (expected) activity E (synergy indicated by figures in bold).
Quick reference: X = mean fungal growth of the listed items.
observation.type: X = mean fungal growth (mm)

molecule	observation.type	assay.value
C=CCOC(Cn1ccnc1)c1ccc(Cl)cc1Cl (stereo not shown) [imazalil]	X = mean fungal growth	14
FC(F)C(F)(F)OCC(Cn1cncn1)c1ccc(Cl)cc1Cl (stereo not shown) [tetraconazole (II-i)]	X = mean fungal growth	13
CCC(C)(NC(=O)c1cc(Cl)c(C)c(Cl)c1)C(=O)CCl (stereo not shown) [zoxamide (II-j)]	X = mean fungal growth	15
CSC(=O)c1cccc2nnsc12 [acibenzolar-S-me (II-e)]	X = mean fungal growth	14

Reference for the values: patent US20080234336A1
